meta.source: patent US20200199213A1

- Target desc: T1, human ANGPTL8 (human, UniProt Q6UXH0 22-198)
- T1 construct: Biotinylated in the ELISA assays; also called hANGPTL8; free ANGPTL8
- T1 sequence: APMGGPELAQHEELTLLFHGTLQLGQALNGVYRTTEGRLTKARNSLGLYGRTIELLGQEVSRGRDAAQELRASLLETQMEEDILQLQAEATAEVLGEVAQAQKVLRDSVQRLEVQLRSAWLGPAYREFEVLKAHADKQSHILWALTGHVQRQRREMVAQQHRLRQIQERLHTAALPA
- Experimental protocol: ELISA; Ab captured by anti-human Fc; biotinylated antigen at 3.70 nM
Measure: OD at 560 nm (OD 560 nm)
# unit: OD 560 nm | format: bare number

Binder	Unit symbol	Recorded number
Ab with LC variant having a E99Q mutation (SEQ ID NO:25) and a HC of SEQ ID NO:6 (antibody, human IgG4 S228P, kappa, F234A L235A, V domains shown, also called E99Q Variant Ab; E99Q Ab) VH: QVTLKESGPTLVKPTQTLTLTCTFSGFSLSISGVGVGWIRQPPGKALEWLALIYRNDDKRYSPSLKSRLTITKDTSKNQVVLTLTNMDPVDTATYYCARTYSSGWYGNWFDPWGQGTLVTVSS VL: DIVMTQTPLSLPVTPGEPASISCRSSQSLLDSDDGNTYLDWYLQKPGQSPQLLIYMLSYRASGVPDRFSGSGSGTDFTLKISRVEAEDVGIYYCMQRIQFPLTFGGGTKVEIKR	OD 560 nm	0.056
Ab with LC variant having a D33A mutation (SEQ ID NO:22) and a HC of SEQ ID NO:6 (antibody, human IgG4 S228P, kappa, F234A L235A, V domains shown, also called D33A Variant Ab; D33A Ab) VH: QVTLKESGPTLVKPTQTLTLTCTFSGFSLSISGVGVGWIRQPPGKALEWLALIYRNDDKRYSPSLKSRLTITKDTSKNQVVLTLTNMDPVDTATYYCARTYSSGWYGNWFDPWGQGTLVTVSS VL: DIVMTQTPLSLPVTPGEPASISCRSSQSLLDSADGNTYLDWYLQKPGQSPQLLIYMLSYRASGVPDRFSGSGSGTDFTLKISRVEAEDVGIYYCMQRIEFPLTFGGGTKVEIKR	OD 560 nm	0.048
anti-ANGPTL3/8 complex Ab having a LC of SEQ ID NO:5 and a HC of SEQ ID NO:6 (antibody, human IgG4 S228P, kappa, F234A L235A, V domains shown, In the ELISA assays tested as IgG from CHO supernatants; also called the Ab) VH: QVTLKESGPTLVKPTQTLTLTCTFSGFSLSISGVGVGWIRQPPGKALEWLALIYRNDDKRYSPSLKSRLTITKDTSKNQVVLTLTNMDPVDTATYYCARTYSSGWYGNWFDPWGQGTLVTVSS VL: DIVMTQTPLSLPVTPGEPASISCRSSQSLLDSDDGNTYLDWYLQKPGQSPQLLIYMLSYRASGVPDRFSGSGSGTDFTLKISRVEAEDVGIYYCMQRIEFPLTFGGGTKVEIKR	OD 560 nm	0.051

Let us examine a further case.
Incoming: Specify reported OD at 560 nm for the binder shown: Ab with LC variant having a D31S mutation (SEQ ID NO:21) and a HC of SEQ ID NO:6 (antibody, human IgG4 S228P, kappa, F234A L235A, V domains shown, also called D31S Variant Ab; D31S Ab) VH: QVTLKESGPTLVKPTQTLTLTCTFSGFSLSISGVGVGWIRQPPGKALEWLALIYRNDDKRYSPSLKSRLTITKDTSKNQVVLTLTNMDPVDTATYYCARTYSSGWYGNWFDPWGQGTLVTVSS VL: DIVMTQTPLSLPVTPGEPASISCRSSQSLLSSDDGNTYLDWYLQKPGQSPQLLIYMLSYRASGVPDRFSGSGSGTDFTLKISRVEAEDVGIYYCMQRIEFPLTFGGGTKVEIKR
Outgoing: 0.056
